- Tested on: LOU-NH91 (Squamous Cell Lung Carcinoma);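 further: after 72 h of two-drug dosing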
- Run Description: Bliss excess, mean over the matrix (fraction); higher = more synergy
Property Measured: Bliss excess
// keep it numeric: no unit symbol after the value

Here are 2 compounds together with their reported answers.
{"columns": ["Compound", "Bliss excess"],
 "data": [
  ["CC1(C)CCC(CN2CCN(c3ccc(C(=O)NS(=O)(=O)c4ccc(NCC5CCOCC5)c([N+](=O)[O-])c4)c(Oc4cnc5[nH]ccc5c4)c3)CC2)=C(c2ccc(Cl)cc2)C1 [Venetoclax] + C1CN(CCC1(C(=O)N[C@@H](CCO)C2=CC=C(C=C2)Cl)N)C3=NC=NC4=C3C=CN4 [Capivasertib] (first compound max 1 µM, 7x7, partner max 3 µM)", -0.0805],
  ["CC(=O)Nc1cccc(-n2c(=O)n(C3CC3)c(=O)c3c(Nc4ccc(I)cc4F)n(C)c(=O)c(C)c32)c1 [Trametinib] + Cc1nc(-c2cn3c(n2)-c2ccc(-c4cnn(C(C)(C)C(N)=O)c4)cc2OCC3)n(C(C)C)n1 [Taselisib] (first compound max 1 µM, 7x7, partner max 10 µM)", 0.116]
]}

Write down Bliss excess measured for item Cn1cnc2c(F)c(Nc3ccc(Br)cc3Cl)c(C(=O)NOCCO)cc21 [Selumetinib] + CCN(CCO)CCCOc1ccc2c(Nc3cc(CC(=O)Nc4cccc(F)c4)[nH]n3)ncnc2c1 [AZD2811] (first compound max 10 µM, 7x7, partner max 1 µM) -0.0096
